Would you mind telling me the reported growth of each entry?
- Tested on: OVCAR-8 ovarian
- measurementNotes: NCI-60 one-dose screen, 48 h (100 = growth as untreated, 0 = no growth, -100 = all killed)
- runConditions: 10 µM unless noted
Compounds without any hit were thinned out: in the full panel of roughly 83,000, 20% have a hit.
One number for each entry, in %.

Endpoint output: growth of COc1ccc(Nc2ccc([N+](=O)[O-])cc2[N+](=O)[O-])cc1CN(CCCl)CCCl . Value?
30.6

Bench note: what growth did COC(=O)[C@@H](C)C[C@H](Cc1cn(C)c2ccccc12)NC(=O)c1csc([C@@H](C[C@H](C(C)C)N(C)C(=O)[C@@H](NC(=O)[C@H]2CCCCN2C)C(C)C)OC(C)=O)n1 show?
30.1

What growth value was documented for this molecule, CN(C)CC(C(=O)Cc1ccccc1)c1ccccc1 (stereo not drawn) ?
34

Given the entry COC(=O)C1CCC(NC(=O)c2csc([C@@H](C[C@H](C(C)C)N(C)C(=O)[C@@H](NC(=O)[C@H]3CCCCN3C)C(C)C)OC(C)=O)n2)CC1 (stereo partly drawn) , report its measured growth.
19.3

Name the recorded growth for COC1OC(CO)C(O)C(O)[CH]1[Hg][O]C(C)=O (stereo not drawn) .
103

I am curious: what growth value has been reported for CC(=O)O[C@H]1C(=O)[C@@]2(C)[C@H]([C@H](OC(=O)c3ccccc3)[C@]3(O)C[C@H](OC(=O)[C@H](OC(=O)OC[C@@H]4COC(C)(C)O4)[C@@H](NC(=O)c4ccccc4)c4ccccc4)C(C)=C1C3(C)C)[C@]1(OC(C)=O)CO[C@@H]1C[C@@H]2O ?
16.5

What value of growth has been reported for the following molecule? COC(=O)[C@@H](C)C[C@H](Cc1ccccc1)NC(=O)c1csc([C@@H](C[C@H](C(C)C)N(C)C(=O)[C@@H](NC(=O)[C@H]2CCCN2C)C2CC2)OC(C)=O)n1
33.4

New cases:
Would you kindly share the measured growth for Cc1cnc(/C=C/C(=O)O)cc1-c1cc2c(cc1C)C(C)(C)CCC2(C)C ?
89.5

====

I'd appreciate it if you could supply growth values for the items below.
- Test system: SR leukemia
- measurementNotes: NCI-60 one-dose screen, 48 h (100 = growth as untreated, 0 = no growth, -100 = all killed)
- runConditions: 10 µM unless noted
About 83,000 compounds went through this panel and 20% of them were active in at least one assay; those are over-represented in the sample as a whole.
Numbers only, in %.

The following compounds have reported results that may help.
# query: growth of entry CCCCCCCCCCCCCCCCCC1OC[C@H](COC(=O)O[C@@H](C(=O)O[C@H]2C[C@@]3(O)[C@@H](OC(=O)c4ccccc4)[C@@H]4[C@]5(OC(C)=O)CO[C@@H]5C[C@H](O)[C@@]4(C)C(=O)[C@H](OC(C)=O)C(=C2C)C3(C)C)[C@@H](NC(=O)c2ccccc2)c2ccccc2)O1 (stereo partly drawn)
44.9

// lookup growth for CC(=O)O[C@H](C[C@H](C(C)C)N(C)C(=O)[C@@H](NC(=O)[C@H]1CCCCN1C)C(C)C)c1nc(C(=O)N[C@@H](Cc2ccccc2)C[C@H](C)C(=O)O)c(C)s1
7.46

Reported growth for C[C@@H]1C[C@@]2(C)[C@@H](CC[C@@H]3[C@@H]2CC[C@]2(C)C(=O)CC[C@@H]32)CC1=O : what is it?
108

What value of measured growth is listed for COc1ccc(C(O)(C(=O)O)c2ccc(OC)cc2)cc1 ?
102

Any idea what its growth is? The compound is O=C1OCC2=C1C(c1ccccc1)c1cc3c(cc1N2)OCO3 (stereo not drawn)
8.69

Go through the list and state growth for each entry.
1. O=NNc1ccccn1
2. C1CCC2(CC1)OOCNCOO2
3. ClCCN(CCCl)c1ccc(-n2cnc3c(Cl)ncnc32)cc1

1. 66.7
2. 62.8
3. -29.2

====

Exercise: state measured growth for each of the molecules provided.
- System: MOLT-4 leukemia
- measurementNotes: NCI-60 one-dose screen, 48 h (100 = growth as untreated, 0 = no growth, -100 = all killed)
- runConditions: 10 µM unless noted
Compounds without any hit were thinned out: in the full panel of roughly 83,000, 20% have a hit.
Numbers only, in %.

Solved entries:
# query: growth of entry CN(C)CCCOc1ccc2c(c1)c(C(=O)C(=O)NCCO)cn2Cc1ccccc1
111

// growth lookup, key: CC(=O)O[C@H]1CC[C@@]2(C)C(=CC[C@H]3[C@@H]4C[C@@H](N5CC5)[C@H](C(C)=O)[C@@]4(C)CC[C@@H]32)C1
63.4

What value of growth has been recorded for this entry: CC12CCC3C(CCC4=CC(=O)CCC43CF)C1CCC2=O (stereo not given)
106

Dear colleague, could you please provide growth for the molecules listed below?
1. COc1ccc(/C(C)=C(\c2ccc(OCCN3CCOCC3)cc2)c2ccc(OC(=O)Cc3ccccc3)cc2)cc1
2. COc1cc2c(c(OC)c1OC)-c1ccc([O-])c(=O)cc1[C@@H](NC(C)=O)CC2.COc1cc2c(c(OC)c1OC)-c1ccc([O-])c(=O)cc1[C@@H](NC(C)=O)CC2.[Cu+2]

1. 104
2. 10.5

====

- Tested on: 786-0 renal
- measurementNotes: NCI-60 one-dose screen, 48 h
- runConditions: 10 µM unless noted
The panel holds about 83,000 compounds, 20% with a hit somewhere; the sample as a whole holds those more often. The source made the active and inactive calls. The calls were made as follows: active = growth percent below 10; inactive = the rest.
Give your call using only these classes: active, inactive

Please review the following examples before continuing.
Write down the call the test reported for this compound. Item: COc1ccc(NC([Se])=NC23CC4CC(CC(C4)C2)C3)cc1
active

Per the records of this test, what outcome belongs to CCOP1(=O)CC(C)=C(Cl)C(P(=O)(OCC)OCC)C1 (configuration not stated) ?
inactive

Identify the outcome logged in this assay for the compound shown: Brc1ccc2c(c1)c(-c1nc(-c3c[nH]c4ncccc34)cs1)cn2CCN1CCCCC1
inactive

Would you mind telling me which call this test gave Clc1ccc(COC(Cn2ccnc2)c2ccc(Cl)cc2Cl)cc1 (configuration not stated) ?
inactive

New cases:
Would you mind telling me which call this test gave CC[C@H](C)[C@H](NC(=O)[C@H]1CCCCN1C)C(=O)N(C)[C@H](C[C@@H](OC(C)=O)c1nc(C(=O)N[C@@H](Cc2ccccc2)C[C@H](C)C(=O)OC)cs1)C(C)C ?
inactive

Hi team, can someone confirm the assay call for O=C1OCCC1Br (configuration not stated) ?
inactive

====

- Tested on: HL-60(TB) leukemia
- measurementNotes: NCI-60 one-dose screen, 48 h (100 = growth as untreated, 0 = no growth, -100 = all killed)
- runConditions: 10 µM unless noted
- Procedure: Growth inhibition of the HL-60(TB) human tumor cell line is measured as a screen for anti-cancer activity. Cells are grown in 96 well plates and exposed to the test compound for 48 hours. Compounds are tested at a single concentration, which is 10^-5 M for most compounds. The reported endpoint is percent growth (GI% or GIPRCNT), where numbers from 0 - 100% represent growth inhibition, and numbers from -100% - 0 represent cell death. For example, a value of 40 represents 60% growth inhibition. […]
This is part of a sample that, as a whole, favours compounds with a hit. Of some 83,000 tested, about 20% had one in any assay.
# if measured growth < 40%: MET  # else: NOT MET

Use these answered entries as a reference point.
Could you please tell me whether growth recorded for O=C1NC(=O)C(=Cc2cccn2CCCCCn2c3ccccc3c(=O)c3ccccc32)C(=O)N1 is less than 40%?
NOT MET

Item Cc1cc(NC(=O)NCc2ccc(N3C(N)=NC(N)=NC3(C)C)cc2)ccc1S(=O)(=O)F : growth beneath 40%, strictly?
MET

Lab log: compare recorded growth with 40%; is it strictly lower for COc1cc(NC(C)CCCNC2CN3CCC2CC3)c2ncccc2c1 (stereo not given) ?
NOT MET

***
Criterion: growth strictly below 40%. Is it met by COc1ccc(/C=C\c2cc(OC)c(OC)c(OC)c2)cc1OCC(=O)Nc1nc2ccc(F)cc2s1 ?
MET

I wonder whether Cc1cc(N(CCCl)CCCl)ccc1C=Nc1cccnc1 has growth below 40%. Can you tell?
NOT MET

growth under 40%? Item: CC1(C)N=C(N)N=C(N)N1c1ccc(CCCCc2ccc(Cl)c(S(=O)(=O)F)c2)c(Cl)c1
MET

Determine if CCC1(C(C)C)C(=O)NC(=S)NC1=O shows growth strictly lower than 40%.
NOT MET

# check: growth < 40% for CC[C@H](C)[C@H](NC(=O)c1cccn1C)C(=O)N(C)[C@H](C[C@@H](OC(C)=O)c1nc(C(=O)N[C@@H](Cc2ccccc2)C[C@H](C)C(=O)OC)cs1)C(C)C
MET

Input CCOc1ccc(/C=C/[N+](=O)[O-])cc1 ; condition: growth strictly below 40%. Does it hold?
NOT MET

Dear colleague, could you confirm whether growth of O=C(CC1(O)C(=O)N(Cc2ccccc2)c2ccc(Br)cc21)c1ccc(C(=O)NCC2CCC3(CC2)OOC2(CCCCC2)OO3)cc1 (stereo not given) falls below 40%? Thanks.
MET
